target: Human GLP-1 receptor (human, UniProt P43220 24-463); test: cell-based or functional assay
Sequence (P43220 24-463): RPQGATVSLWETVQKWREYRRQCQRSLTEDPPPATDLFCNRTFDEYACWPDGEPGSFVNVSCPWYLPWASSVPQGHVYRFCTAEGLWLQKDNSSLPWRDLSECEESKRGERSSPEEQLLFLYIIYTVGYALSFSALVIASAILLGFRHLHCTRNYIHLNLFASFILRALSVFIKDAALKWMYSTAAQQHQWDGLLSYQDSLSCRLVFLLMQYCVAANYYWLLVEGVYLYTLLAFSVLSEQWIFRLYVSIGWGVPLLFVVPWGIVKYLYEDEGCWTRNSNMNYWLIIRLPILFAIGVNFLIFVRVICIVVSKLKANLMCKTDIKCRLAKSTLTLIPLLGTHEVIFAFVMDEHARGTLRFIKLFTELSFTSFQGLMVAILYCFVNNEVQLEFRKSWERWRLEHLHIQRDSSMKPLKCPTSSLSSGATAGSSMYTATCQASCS
Where no end group is shown, it is not given here. [ ]: non-standard residue; d: D form. Aib = CC(C)(N)C(=O)O
readout kind: cAMP release, % activity with respect to control; test compound 10 µM (%)

{"columns": ["binder", "units", "reported value"],
 "data": [
  ["H[Aib]QGTFTSD[Bip(OMe)][Bip(2F)] [Seq. ID. No. 15: H-Aib-QGTFTSD-Bip(OMe)-Bip(2F)]", "%", 99],
  ["H[Aib]QGTFTSD[Bip(OMe)][Bip(Pyr)] [Seq. ID. No. 14: H-Aib-QGTFTSD-Bip(OMe)-Bip(Pyr)]", "%", 99],
  ["HAQGTFTSD[Bip(OMe)][Bip(2Me)] (not fully specified (C-terminus); printed as HAQGTFTSD-Bip(OMe)-Bip(2Me)) [Seq. ID. No. 9: HAQGTFTSD-Bip(OMe)-Bip(2Me)]", "%", 97]
]}
